tested on: L858R/T790M/C797S EGFR (Homo sapiens, UniProt P00533, C797S/L858R/T790M)
Construct: expressed in transfected cells; host or cells: H1975 clone #25 (lentiviral over-expression, endogenous EGFR knocked out by sgRNA)
Sequence (P00533 25-1210 T790M/C797S/L858R): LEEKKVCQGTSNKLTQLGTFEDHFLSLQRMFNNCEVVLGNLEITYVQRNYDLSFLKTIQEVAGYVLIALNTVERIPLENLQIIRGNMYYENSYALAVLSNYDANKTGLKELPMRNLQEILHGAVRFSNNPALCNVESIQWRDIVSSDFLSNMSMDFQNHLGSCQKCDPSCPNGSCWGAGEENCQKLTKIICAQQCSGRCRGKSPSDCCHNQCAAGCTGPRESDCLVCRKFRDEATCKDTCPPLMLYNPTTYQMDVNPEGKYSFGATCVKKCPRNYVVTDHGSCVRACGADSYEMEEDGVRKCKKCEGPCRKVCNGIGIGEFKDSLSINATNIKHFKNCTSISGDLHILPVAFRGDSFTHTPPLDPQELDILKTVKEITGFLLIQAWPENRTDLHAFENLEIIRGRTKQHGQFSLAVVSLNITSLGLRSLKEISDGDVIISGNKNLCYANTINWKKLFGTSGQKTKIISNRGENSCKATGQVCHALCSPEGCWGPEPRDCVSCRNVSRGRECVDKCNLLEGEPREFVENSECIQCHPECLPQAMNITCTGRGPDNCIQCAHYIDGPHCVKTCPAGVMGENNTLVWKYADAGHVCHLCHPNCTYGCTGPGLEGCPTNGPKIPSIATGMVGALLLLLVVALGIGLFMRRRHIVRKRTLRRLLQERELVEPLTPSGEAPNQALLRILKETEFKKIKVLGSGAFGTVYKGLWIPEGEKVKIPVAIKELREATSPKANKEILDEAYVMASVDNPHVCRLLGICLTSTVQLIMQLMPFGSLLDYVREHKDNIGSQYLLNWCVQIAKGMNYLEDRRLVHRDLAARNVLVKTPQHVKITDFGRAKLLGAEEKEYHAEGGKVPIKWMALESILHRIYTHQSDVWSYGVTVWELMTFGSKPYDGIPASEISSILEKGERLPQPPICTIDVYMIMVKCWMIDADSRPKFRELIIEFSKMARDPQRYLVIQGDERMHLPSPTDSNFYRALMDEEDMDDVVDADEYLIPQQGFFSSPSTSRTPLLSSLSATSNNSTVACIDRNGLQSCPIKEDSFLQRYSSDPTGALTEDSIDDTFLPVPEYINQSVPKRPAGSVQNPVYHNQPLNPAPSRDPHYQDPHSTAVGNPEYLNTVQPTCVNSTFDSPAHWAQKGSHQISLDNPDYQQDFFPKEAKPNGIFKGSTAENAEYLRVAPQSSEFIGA
assay method text: EGFR degradation HTRF assay in H1975-clone #25 (LTC) cells
Type: cell-based
condition set: H1975 # 25-LTC (L858R/T790M/C797S), 16h treatment, HTRF
measured endpoint: DC50 (nM)
Form entry: value (nM) — number only.

[[record]]
chemical_string = "COC[C@@H]1CN(c2ccc3c(c2)N2C[C@H](C)CCCOc4c(cnn4C)-c4cc(cc(C)n4)C(=O)/N=C/2N3)CCN1C1CCN(c2cc(F)c([C@H]3CCC(=O)NC3=O)c(F)c2)CC1"
number = 2.01

[[record]]
chemical_string = "Cc1cc2cc(n1)-c1cnn(C)c1OCCC[C@@H](C)CN1/C(=N/C2=O)Nc2ccc(N(C)C(=O)C3CCN(CCc4cc(F)c([C@H]5CCC(=O)NC5=O)c(F)c4)CC3)cc21"
number = 0.878

[[record]]
chemical_string = "Cc1cc2cc(n1)-c1cnn(C)c1OCCC[C@@H](C)CN1/C(=N/C2=O)Nc2ccc(N3CCN(CC4CN(c5cc(F)c([C@H]6CCC(=O)NC6=O)c(F)c5)C4)[C@@H](CO)C3)cc21"
number = 0.856

[[record]]
chemical_string = "Cc1cc2cc(n1)-c1cnn(C)c1OCCC[C@@H](C)CN1/C(=N/C2=O)Nc2ccc(N3CCC(C(=O)N4CC(Nc5cc(F)c([C@H]6CCC(=O)NC6=O)c(F)c5)C4)CC3)cc21"
number = 0.94


Qu. Quick one: DC50 for `Cc1cc2cc(n1)-c1cnn(C)c1OCCC[C@@H](C)CN1/C(=N/C2=O)Nc2ccc(CN3CCN(C[C@@H]4CCN(c5cc(F)c([C@H]6CCC(=O)NC6=O)c(F)c5)C4)CC3)cc21` ?
Ans. 1.5

---

In this section, each of the compounds is paired with its reported DC50.
tested on: L858R/T790M/C797S EGFR (Homo sapiens, UniProt P00533, C797S/L858R/T790M)
Construct: expressed in transfected cells; host or cells: H1975 clone #25 (lentiviral over-expression, endogenous EGFR knocked out by sgRNA)
assay method text: EGFR degradation HTRF assay in H1975-clone #25 (LTC) cells
Assay type: cell-based
condition set: H1975 # 25-LTC (L858R/T790M/C797S), 16h treatment, HTRF
Form entry: value (nM) — number only.

[[record]]
compound = "Cc1cc2cc(n1)-c1cnn(C)c1OCCC[C@@H](C)CN1/C(=N/C2=O)Nc2ccc(C(=O)N(C)C3C[C@H]4CN(CCc5cc(F)c([C@H]6CCC(=O)NC6=O)c(F)c5)C[C@@H]4C3)cc21"
reading_unit = "nM"
number = 1.56

[[record]]
compound = "Cc1cc2cc(n1)-c1cnn(C)c1OCCC[C@@H](C)CN1/C(=N/C2=O)Nc2ccc(N3CCN(C4CCN(c5cc(F)c([C@H]6CCC(=O)NC6=O)c(F)c5)CC4)CC34CC4)cc21"
reading_unit = "nM"
number = 0.517


Moving on to the next compound.
Qu. Quick one: DC50 for Cc1cc2cc(n1)-c1cnn(C)c1OCCC[C@@H](C)CN1/C(=N/C2=O)Nc2ccc(C(=O)N(C)C3CCN(CCc4cccc5c4n(C)c(=O)n5C4CCC(=O)NC4=O)CC3)cc21 (stereo partly drawn) ?
Ans. 2.59

---

tested on: L858R/T790M/C797S EGFR (Homo sapiens, UniProt P00533, C797S/L858R/T790M)
Construct: expressed in transfected cells; host or cells: H1975 clone #25 (lentiviral over-expression, endogenous EGFR knocked out by sgRNA)
assay method text: EGFR degradation HTRF assay in H1975-clone #25 (LTC) cells
Type: cell-based
condition set: H1975 # 25-LTC (L858R/T790M/C797S), 16h treatment, HTRF
measured endpoint: DC50 (nM)
Form entry: value (nM) — number only.

[[record]]
chemical_string = "Cc1cc2cc(n1)-c1cnn(C)c1OCCC[C@@H](C)CN1/C(=N/C2=O)Nc2ccc(N3CCN(C4CCN(c5cc(F)c([C@H]6CCC(=O)NC6=O)c(F)c5)CC4)CC3)cc21"
reading_unit = "nM"
number = 1.02


Qu. Quick one: DC50 for `Cc1cc2cc(n1)-c1cnn(C)c1OCCC[C@@H](C)CN1/C(=N/C2=O)Nc2ccc(C(=O)N(C)[C@@H]3CCN(CCc4cc(F)c([C@H]5CCC(=O)NC5=O)c(F)c4)CC3(F)F)cc21` ?
Ans. 1.06

Qu. Quick one: DC50 for `Cc1cc2cc(n1)-c1cnn(C)c1OCCC[C@@H](C)CN1/C(=N/C2=O)Nc2ccc(N(C)C3CCN(C4CCN(c5cc(F)c([C@H]6CCC(=O)NC6=O)c(F)c5)CC4)CC3)cc21` ?
Ans. 2.59

Qu. Quick one: DC50 for `Cc1cc2cc(n1)-c1cnn(C)c1OCCC[C@@H](C)CN1/C(=N/C2=O)Nc2ccc(N3CCN(C4CCN(c5cc(F)c([C@H]6CCC(=O)NC6=O)c(F)c5)CC4)C(=O)C3)cc21` ?
Ans. 0.73

Qu. Quick one: DC50 for `COC[C@H]1CN(C(=O)C2CCN(c3ccc4c(c3)N3C[C@H](C)CCCOc5c(cnn5C)-c5cc(cc(C)n5)C(=O)/N=C/3N4)CC2)CCN1c1cc(F)c([C@H]2CCC(=O)NC2=O)c(F)c1` ?
Ans. 0.643

Qu. Quick one: DC50 for `Cc1cc2cc(n1)-c1cnn(C)c1OCCC[C@@H](C)CN1/C(=N/C2=O)Nc2ccc(C3CCN(CC4CCN(c5cc(F)c([C@H]6CCC(=O)NC6=O)c(F)c5)CC4)CC3)cc21` ?
Ans. 1.03

Qu. Quick one: DC50 for `Cc1cc2cc(n1)-c1cnn(C)c1OCCC[C@@H](C)CN1/C(=N/C2=O)Nc2ccc(N3CCN(CCc4cc(F)c([C@H]5CCC(=O)NC5=O)c(F)c4)CC3=O)cc21` ?
Ans. 0.372

Qu. Quick one: DC50 for `Cc1cc2cc(n1)-c1cnn(C)c1OCCC[C@@H](C)CN1/C(=N/C2=O)Nc2ccc(N3CCC(NC4CCN(c5cc(F)c([C@H]6CCC(=O)NC6=O)c(F)c5)CC4)CC3)cc21` ?
Ans. 1.37

Qu. Quick one: DC50 for `Cc1cc2cc(n1)-c1cnn(C)c1OCCC[C@@H](C)CN1/C(=N/C2=O)Nc2ccc(CN3C4CCC3CN(C(=O)[C@@H]3CCN(c5cc(F)c([C@H]6CCC(=O)NC6=O)c(F)c5)C3)C4)cc21` ?
Ans. 1.01

Qu. Quick one: DC50 for `Cc1cc2cc(n1)-c1cnn(C)c1OCCC[C@@H](C)CN1/C(=N/C2=O)Nc2ccc(CN3CCN(C(=O)[C@@H]4CCN(c5cc(F)c([C@H]6CCC(=O)NC6=O)c(F)c5)C4)C[C@H]3C)cc21` ?
Ans. 1

---

tested on: L858R/T790M/C797S EGFR (Homo sapiens, UniProt P00533, C797S/L858R/T790M)
Construct: expressed in transfected cells; host or cells: H1975 clone #25 (lentiviral over-expression, endogenous EGFR knocked out by sgRNA)
assay method text: EGFR degradation HTRF assay in H1975-clone #25 (LTC) cells
Type: cell-based
condition set: H1975 # 25-LTC (L858R/T790M/C797S), 16h treatment, HTRF
From the text: H1975-clone #28(Del19/T790M/C797S, or abbr: DTC), H1975-clone #23(Del19/C797S, or abbr: DC), H1975-clone #25(L858R/T790M/C797S, or abbr: LTC) and H1975-clone #8 (L858R/C797S, or abbr: LC). EGFR-Del19:T790M/C797S, EGFR-Del19/C797S, EGFR-L858R/T790M/C797S and EGFR-L858R/C797S were stably expressed in H1975 cell lines by lentivirus-mediated over-expression, respectively. […]
In this section, each of the compounds is paired with its reported DC50.
Form entry: value (nM) — number only.

[[record]]
compound = "Cc1cc2cc(n1)-c1c(C(F)F)nn(C)c1OCCC[C@@H](C)CN1/C(=N/C2=O)Nc2ccc(CN3CCN(C(=O)C4CN(c5cc(F)c([C@H]6CCC(=O)NC6=O)c(F)c5)C4)CC3)cc21 [Example 64]"
measured_endpoint = "DC50"
number = 3.13

[[record]]
compound = "Cc1cc2cc(n1)-c1cnn(C)c1OCCC[C@@H](C)CN1/C(=N/C2=O)Nc2ccc(N3CCN([C@H]4CCN(c5cc(F)c([C@H]6CCC(=O)NC6=O)c(F)c5)C[C@@H]4F)CC3)cc21 (single isomer, unassigned) [Example 424]"
measured_endpoint = "DC50"
number = 2.51

[[record]]
compound = "Cc1cc2cc(n1)-c1cnn(C)c1OCCC[C@@H](C)CN1/C(=N/C2=O)Nc2ccc(C(=O)N(CCN3CCC(c4cc(F)c([C@H]5CCC(=O)NC5=O)c(F)c4)CC3)C(C)C)cc21 [Example 283]"
measured_endpoint = "DC50"
number = 0.494

[[record]]
compound = "Cc1cc2cc(n1)-c1cnn(C)c1OCCC[C@@H](C)CN1/C(=N/C2=O)Nc2ccc(C(=O)N(C)[C@@H]3CCN(CCc4cc(F)c([C@H]5CCC(=O)NC5=O)c(F)c4)C3)cc21 [Example 291]"
measured_endpoint = "DC50"
number = 0.63

[[record]]
compound = "Cc1cc2cc(n1)-c1c(C)nn(C)c1OCCC[C@@H](C)CN1/C(=N/C2=O)Nc2ccc(C(=O)N(C)C3CCN(CCc4cc(F)c([C@H]5CCC(=O)NC5=O)c(F)c4)CC3)cc21 [Example 233]"
measured_endpoint = "DC50"
number = 1.05

[[record]]
compound = "COC[C@H]1CN(C2CCN(c3cc(F)c([C@H]4CCC(=O)NC4=O)c(F)c3)CC2)CCN1c1ccc2c(c1)N1C[C@H](C)CCCOc3c(cnn3C)-c3cc(cc(C)n3)C(=O)/N=C/1N2 [Example 385]"
measured_endpoint = "DC50"
number = 2.63

[[record]]
compound = "Cc1cc2cc(n1)-c1cnn(C)c1OCCC[C@@H](C)CN1/C(=N/C2=O)Nc2ccc(CN3CCN(C(=O)[C@@H]4CCN(c5cc(F)c([C@H]6CCC(=O)NC6=O)c(F)c5)C4(C)C)C[C@@H]3C)cc21 [Example 190]"
measured_endpoint = "DC50"
number = 1.17

[[record]]
compound = "Cc1cc2cc(n1)-c1cnn(C)c1OCCC[C@@H](C)CN1/C(=N/C2=O)Nc2ccc(C(=O)N(C)[C@@H]3CCN(CCc4cc(F)c([C@H]5CCC(=O)NC5=O)c(F)c4)C[C@H]3O)cc21 [Example 243]"
measured_endpoint = "DC50"
number = 0.677


Moving on to the next compound.
Qu. Quick one: DC50 for Cc1cc2cc(n1)-c1cnn(C)c1OCCC[C@@H](C)CN1/C(=N/C2=O)Nc2ccc(C(=O)N(C)C[C@H]3CCCN(CCc4cc(F)c([C@H]5CCC(=O)NC5=O)c(F)c4)C3)cc21 [Example 276] ?
Ans. 0.592

All values here come from patent US20240342292A1.
